target: Cannabinoid receptor 1 (Mus musculus)
Sequence (P47746 whole entry): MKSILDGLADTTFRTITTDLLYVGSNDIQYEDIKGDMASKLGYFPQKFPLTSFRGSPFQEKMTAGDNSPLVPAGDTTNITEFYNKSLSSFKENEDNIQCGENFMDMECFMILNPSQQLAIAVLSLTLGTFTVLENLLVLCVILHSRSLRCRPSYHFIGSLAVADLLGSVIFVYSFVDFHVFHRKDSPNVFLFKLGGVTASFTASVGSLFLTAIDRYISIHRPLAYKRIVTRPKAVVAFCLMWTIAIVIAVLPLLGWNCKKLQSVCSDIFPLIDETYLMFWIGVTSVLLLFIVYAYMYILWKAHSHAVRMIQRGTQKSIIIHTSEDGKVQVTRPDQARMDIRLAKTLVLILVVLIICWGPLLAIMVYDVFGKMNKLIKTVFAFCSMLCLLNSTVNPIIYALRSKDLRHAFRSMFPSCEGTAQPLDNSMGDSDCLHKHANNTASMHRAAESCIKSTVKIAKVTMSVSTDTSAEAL
READOUT_LABEL: Ki (µM)
Just the number please, in µM, no unit attached.

Example entries and their recorded answers appear below.
# COMPOUND, Ki [µM]
data = [
    ("Cc1cc2c(s1)Cc1c(C(=O)NC3C[C@@H](C)CC[C@@H]3C(C)C)nn(-c3ccc(Cl)cc3Cl)c1-2 (stereo not given in full)", 0.0065),
    ("Cc1csc2c1-c1c(c(C(=O)NN3CCOCC3)nn1-c1ccc(Cl)cc1Cl)C2", 4.71),
    ("Cc1ccc(Cn2nc(C(=O)NN3CCOCC3)c3c2-c2c(C)csc2C3)cc1", 4.5),
    ("Cc1cc2c(s1)Cc1c(C(=O)NC3CCCCC3)nn(-c3ccc(Cl)cc3Cl)c1-2", 0.447),
]

I looked up Cc1ccc(Cn2nc(C(=O)NN3CCCCCC3)c3c2-c2c(C)csc2C3)cc1 and its Ki for Cannabinoid receptor 1 (Mus musculus) was 1.28

Record Cc1cc2c(s1)Cc1c(C(=O)NN3CCCCCC3)nn(-c3ccc(Cl)cc3Cl)c1-2 / Cannabinoid receptor 1 (Mus musculus), Ki recorded as 0.442

----------
organism: Mus musculus; assay: Selectivity ratio of Ki for CD1 mouse brain (minus cerebellum) CB1 receptor to Ki for CD1 mouse spleen CB2 receptor; format: tissue-based
Labelling field: enter Met if recorded Ratio Ki is less than 9. Enter Not met if it equals or exceeds that cut-off.

Example results:
# MOLECULE, LABEL_CLASS
data = [
    ("Cc1ccc(Cn2nc(C(=O)NN3CCOCC3)c3c2-c2c(C)csc2C3)cc1", "Met"),
    ("Cc1ccc(Cn2nc(C(=O)NC3C(C)(C)C4CC[C@@]3(C)C4)c3c2-c2c(C)csc2C3)cc1 (stereo not given in full)", "Not met"),
    ("Cc1csc2c1-c1c(c(C(=O)NC3C[C@@H](C)CC[C@@H]3C(C)C)nn1-c1ccc(Cl)cc1Cl)C2 (stereo not given in full)", "Not met"),
    ("Cc1cc2c(s1)Cc1c(C(=O)NC3C[C@@H](C)CC[C@@H]3C(C)C)nn(-c3ccc(Cl)cc3Cl)c1-2 (stereo not given in full)", "Met"),
    ("Cc1cc2c(s1)Cc1c(C(=O)NN3CCCCC3)nn(-c3ccc(Cl)cc3Cl)c1-2", "Not met"),
]

Prompt: Is 9 strictly greater than the molecule's reported Ratio Ki? molecule: Cc1csc2c1-c1c(c(C(=O)NN3CCCC3)nn1-c1ccc(Cl)cc1Cl)C2
Completion: Met

Prompt: Please indicate whether the reported Ratio Ki of Cc1csc2c1-c1c(c(C(=O)NC3C(C)(C)C4CC[C@@]3(C)C4)nn1-c1ccc(Cl)cc1Cl)C2 (stereo not given in full) is strictly below 9.
Completion: Not met

Prompt: Lab log: compare recorded Ratio Ki with 9; is it strictly lower for Cc1ccc(Cn2nc(C(=O)NC3CCCCC3)c3c2-c2c(C)csc2C3)cc1 ?
Completion: Not met

Prompt: Does the reported Ratio Ki of Cc1ccc(Cn2nc(C(=O)NN3CCCC3)c3c2-c2c(C)csc2C3)cc1 stay below 9?
Completion: Met

Prompt: Given Cc1csc2c1-c1c(c(C(=O)NN3CCCCCC3)nn1-c1ccc(Cl)cc1Cl)C2 , is recorded Ratio Ki strictly lower than 9?
Completion: Not met

Prompt: API: query returns whether the molecule falls strictly under 9 in Ratio Ki. Query: Cc1csc2c1-c1c(c(C(=O)NN3CCCCC3)nn1-c1ccc(Cl)cc1Cl)C2
Completion: Met

Prompt: Decide: Ratio Ki of Cc1ccc(Cn2nc(C(=O)NC3C[C@@H](C)CC[C@@H]3C(C)C)c3c2-c2cc(C)sc2C3)cc1 (stereo not given in full) strictly below 9?
Completion: Not met

Prompt: Please state whether Ratio Ki is below 9 for Cc1cc2c(s1)Cc1c(C(=O)NN3CCCC3)nn(-c3ccc(Cl)cc3Cl)c1-2
Completion: Not met

Prompt: Strictly below 9: is that where Ratio Ki of Cc1csc2c1-c1c(c(C(=O)NN3CCOCC3)nn1-c1ccc(Cl)cc1Cl)C2 sits?
Completion: Met
